Reported growth inhibition values for a set of molecules
- procedure text: NCI Yeast Anticancer Drug Screen. Data for the rad50 strain (AID 155);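 also: 0% = growth of vehicle-only cultures of the same strain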
- study conditions: S. cerevisiae rad50 strain growth inhibition; at 5.0 µM (retest, dose inferred, filed as 0.5); hits give high values
- Experimental: Growth inhibition of yeast strains with defined genetic alterations is measured as a screen for potential anti-cancer activity. Selected strains with alterations in DNA damage repair or cell cycle control were exposed to compounds and growth inhibition was measured relative to vehicle treated controls. The strain used in this assay is rad50
This is part of a sample that, as a whole, favours compounds with a hit. Of some 79,000 tested, about 15% had one in any assay.
Just the number please, in %, no unit attached.

O=P(c1cccc(C(F)(F)F)c1)(c1cccc(C(F)(F)F)c1)c1cccc(C(F)(F)F)c1.O=P(c1cccc(C(F)(F)F)c1)(c1cccc(C(F)(F)F)c1)c1cccc(C(F)(F)F)c1.[Cl][Sn]([Cl])([Cl])[Cl] ... 3
CC(C)=N.[C-]#[O+].[C-]#[O+].[C-]#[O+].[C-]#[O+].[C-]#[O+].[W] ... 30
O=c1oc2ccccc2c(O)c1C(C/C(CCN1CCCC1)=N/O)c1ccccc1 (centres undefined) ... 28

// growth inhibition lookup, molecule = `O=C(CCl)Nc1ccc(Cl)cc1` , result: 3
